# Procedure summary: Luminescence activity assay of purified Gaussia luciferase mutants on coelenterazine derivative ZS2
# Format: biochemical
# Set-up: key: ratio of mutant luminescence intensity to wild-type Gaussia luciferase
# Study conditions: Substrate ZS2 (Table 16)
Would you mind telling me the reported Activity of mutant relative to wild-type Gaussia luciferase without the signal peptide of each entry?
Answer field: number only, no words.

Task: # Activity of mutant relative to wild-type Gaussia luciferase without the signal peptide lookup, item F26S V29L A30G S33R T37K L40A: Gaussia luciferase mutant (protein, SIGNAL (1)..(17), Gaussia luciferase mutant) MGVKVLFALICIAVAEAKPTENNEDSNILGVARNFAKTDADADRGKLPGKKLPLEVLKEMEANARKAGCTRGCLICLSHIKCTPKMKKFIPGRCHTYEGDKESAQGGIGEAIVDIPEIPGFKDLEPMEQFIAQVDLCVDCTTGCLKGLANVQCSDLLKKWLPQRCATFASKIQGQVDKIKGAGGD
Result: 0.787

Task: Consider the molecule shown here: K66N H79K P84L S103T E110A D123N L124M E128G V138E: Gaussia luciferase mutant (protein, SIGNAL (1)..(17), Gaussia luciferase mutant) MGVKVLFALICIAVAEAKPTENNEDFNIVAVASNFATTDLDADRGKLPGKKLPLEVLKEMEANARNAGCTRGCLICLSKIKCTLKMKKFIPGRCHTYEGDKETAQGGIGAAIVDIPEIPGFKNMEPMGQFIAQVDLCEDCTTGCLKGLANVQCSDLLKKWLPQRCATFASKIQGQVDKIKGAGGD What is its recorded Activity of mutant relative to wild-type Gaussia luciferase without the signal peptide?
Result: 1.709
